concentration at 0.25 h values, listed per item
# assay.procedure: Pharmacokinetics in ICR mice, plasma drug concentrations
# Format: in vivo
# condition.parameters: mouse, plasma, po; p.o. 10 mg/kg, 0.25 hour, ICR mice
readout: concentration at 0.25 h

NC1CN(c2nc(N3CCS(=O)(=O)c4ccccc4C3)nc3ccc(C(F)F)cc23)C1 ... 274 ng/mL
NC1(CNc2nc(N3CCS(=O)(=O)c4ccccc4C3)nc3ccc(C(F)F)cc23)COC1 ... 262 ng/mL

---

# assay.procedure: Pharmacokinetics in ICR mice, plasma drug concentrations
# Assay type: in vivo
# condition.parameters: mouse, plasma, iv; i.v. 2 mg/kg, 12 hour, ICR mice
readout: concentration at 12 h

NC1(CNc2nc(N3CCS(=O)(=O)c4ccccc4C3)nc3ccc(C(F)F)cc23)COC1 ... 1.3 ng/mL
